Ref: paper PMC12040169

method.description: in vitro
run.conditions: human, hela cells, % viability
value.kind: viability at 28.5 h, 10 µM (%)
Give bare numbers, in %.

CC1CC(C)CN(CCCNC(=O)c2cc(C(C)C)nn2C)C1 (centres unmarked) :: 106
Cc1cc2nnc(SCC(=O)Nc3ccc4c(c3)OCO4)n2c2ccccc12 :: 82.8
COc1ccc(C(=O)N2CCC3(CCCN(C(=O)c4ccc5ncccc5c4)C3)C2)cc1OC (centres unmarked) :: 92.4
CCS(=O)(=O)c1ccc(C(=O)Nc2nc3c(F)cc(F)cc3s2)cc1 :: 106

Now for a further compound.
Output viability at 28.5 h, 10 µM of Cn1nccc1NS(=O)(=O)c1ccc(Br)cc1C(F)(F)F 104
